Target: T1, CD71 apical domain (human, UniProt P02786 189-383, limits assumed)
T1 construct: domain: apical domain
T1 sequence (P02786 189-383 limits assumed): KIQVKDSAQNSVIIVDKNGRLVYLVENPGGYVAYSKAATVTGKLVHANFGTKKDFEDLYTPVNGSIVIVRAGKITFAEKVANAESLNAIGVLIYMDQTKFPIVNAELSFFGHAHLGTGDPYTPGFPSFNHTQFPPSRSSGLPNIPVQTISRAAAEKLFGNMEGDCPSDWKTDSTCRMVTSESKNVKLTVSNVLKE
Assay: solution ELISA screen, signal ratio to HSA control
MEASUREMENT KIND: apical domain:HSA (ratio)

a: SEQ ID NO 232 (designed binder, not shown: small tags and cut ends) MLPAPKNLVVSRVTEDSARLSWTAPDAAFDSFFIGYLEPQPPGEAIYLDVPGSERSYDLTGLKPGTEYNVTIQGVKGGFPSTFTT
b: SEQ ID NO 210 (designed binder, not shown: small tags and cut ends) MLPAPKNLVVSRVTEDSARLSWTAPDAAFDSFFIGYLEPQPPGEAINLQVPGSERSYDLTGLKPGTEYNVTIQGVKGGFPSFPLSAVFTT
c: SEQ ID NO 230 (designed binder, not shown: small tags and cut ends) MLPAPKNLVVSRVTEDSARLSWTAPDAAFDSFYIAYAEPRPDGEAIWLLVPGSERSYDLTGLKPGTEYSVLIHGVKGGLLSSPLVAFFTT
Rank the listed binders according to apical domain:HSA, from the largest value downward. Labels, requested order.
c, b, a
